experimentalSystem: recombinant Mcl-1 (residues 172-327) (Homo sapiens (Human), UniProt Q07820)
Sequence (Q07820 172-327): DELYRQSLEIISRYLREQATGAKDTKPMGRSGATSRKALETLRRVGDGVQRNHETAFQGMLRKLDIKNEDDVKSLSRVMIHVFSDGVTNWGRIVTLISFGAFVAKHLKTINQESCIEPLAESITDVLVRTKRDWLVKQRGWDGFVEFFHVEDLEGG
protocolSummary: Bak peptide fluorescence polarization anisotropy competition assay, Mcl-1
Type: binding
testConditions: read-out: Ki for inhibition of Mcl-1
metric: Ki

Find the recorded Ki belonging to Cc1cc(OCCCc2c(C(=O)NS(=O)(=O)c3ccccc3)[nH]c3c(-c4ccoc4)cccc23)cc(C)c1Cl [Example 87] and report it. 101 to 299 nM

What measured Ki goes with Cc1cc(OCCCc2c(C(=O)NS(=O)(=O)c3ccc(Oc4ccc(Cl)c(Cl)c4)cc3)[nH]c3cc(Cl)ccc23)cc(C)c1Cl [Example 221] ? 301 to 500 nM

Entry Cc1cc(OCCCc2c(C(=O)NS(=O)(=O)CCNC(=O)c3cc(C)n(C)c3C)[nH]c3ccccc23)cc(C)c1Cl [Example 192] : reported Ki = ? 301 to 500 nM

Item under review: O=C(O)c1sc2cc(-c3ccccc3)ccc2c1CCCOc1cccc2ccccc12 [Example 13] . Reported Ki? 1000 to 9990 nM

Would you kindly share the measured Ki for Cc1cc(OCCCc2c(C(=O)NS(=O)(=O)c3cccc(Br)c3)[nH]c3cc(Cl)ccc23)cc(C)c1Cl [Example 218] ? 101 to 299 nM

Reported Ki, compound Cc1ccccc1-c1ccc2c(CCCOc3cccc4ccccc34)c(C(=O)O)sc2c1 [Example 12] : ____ 1000 to 9990 nM

Query (compound): COC(=O)c1ccc(S(=O)(=O)NC(=O)c2[nH]c3cc(Cl)ccc3c2CCCOc2cc(C)c(Cl)c(C)c2)o1 [Example 259] ; field requested: Ki 101 to 299 nM

If you can, please state the reported Ki value of Cc1cc(OCCCc2c(C(=O)NS(=O)(=O)CCNC(=O)c3cncn3C)[nH]c3ccccc23)cc(C)c1Cl [Example 187] . 1000 to 9990 nM

Please report the recorded Ki for Cc1cc(OCCCc2c(C(=O)NS(=O)(=O)c3ccccc3)[nH]c3c(-c4cccnc4)cccc23)cc(C)c1Cl [Example 93] . 101 to 299 nM

Could you share which Ki value was measured for Cc1cc(C(=O)NCCS(=O)(=O)NC(=O)c2[nH]c3ccccc3c2CCCOc2cc(C)c(Cl)c(C)c2)c(C)o1 [Example 159] ? 101 to 299 nM

Looking for the measured Ki of COc1cccc(Cn2cccc2C(=O)NCCS(=O)(=O)NC(=O)c2[nH]c3cc(Cl)ccc3c2CCCOc2cc(C)c(Cl)c(C)c2)c1 [Example 247] , can you help? 101 to 299 nM

What Ki value was documented for this compound, CC(=O)N1CCC(CS(=O)(=O)NC(=O)c2[nH]c3ccccc3c2CCCOc2cc(C)c(Cl)c(C)c2)CC1 [Example 210] ? 501 to 999 nM

Any idea what its Ki is? The compound is CS(=O)(=O)NC(=O)c1[nH]c2ccccc2c1CCCOc1ccc2c(c1)CCCC2 [Example 38] 1000 to 9990 nM

Name the recorded Ki for Cc1cc(OCCCc2c(C(=O)NS(=O)(=O)CCNC(=O)c3cc(C)n(Cc4ccncc4)c3C)[nH]c3ccccc23)cc(C)c1Cl [Example 195] . 101 to 299 nM

Please give the measured Ki for this compound: CS(=O)(=O)NC(=O)c1[nH]c2cc(Cl)ccc2c1CCCOc1ccc(Cl)c(Cl)c1 [Example 105] 1000 to 9990 nM
